Biological target: T1, SALL4 ZFC4 V925S (Mus musculus, UniProt Q8BX22 870-940, V925S)
T1 sequence: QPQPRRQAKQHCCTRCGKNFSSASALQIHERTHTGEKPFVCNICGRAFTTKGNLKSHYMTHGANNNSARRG
Assay: EMSA; apparent; poly(dI-dC); EMSA: 68.1 nM DY681-dsDNA, 20 mM HEPES pH 7.5, 150 mM K acetate, 5 mM Mg acetate, 10 ng/ul poly(dI-dC), 30 min on ice; 4% native PAGE, 0.5x TBE, 4 C
Settings: protein: recombinant; tags: His6-GST removed with 3C protease; label: DY681

BINDER: EMSA AT-rich probe (dsDNA) DNA 1: AAAAAATATTAAAAA DNA 2: TTTTTAATATTTTTT
Kd: 0.91 µM
